src = patent US8198273B2

target: CYP2D6 (Homo sapiens, UniProt P10635); assay: CYP2D6 inhibition (fluorescent substrate); assay type: in vitro ADME; conditions: CYP2D6, AMMC substrate; read-out: Cyp IC50 2D6
Sequence (P10635 whole entry): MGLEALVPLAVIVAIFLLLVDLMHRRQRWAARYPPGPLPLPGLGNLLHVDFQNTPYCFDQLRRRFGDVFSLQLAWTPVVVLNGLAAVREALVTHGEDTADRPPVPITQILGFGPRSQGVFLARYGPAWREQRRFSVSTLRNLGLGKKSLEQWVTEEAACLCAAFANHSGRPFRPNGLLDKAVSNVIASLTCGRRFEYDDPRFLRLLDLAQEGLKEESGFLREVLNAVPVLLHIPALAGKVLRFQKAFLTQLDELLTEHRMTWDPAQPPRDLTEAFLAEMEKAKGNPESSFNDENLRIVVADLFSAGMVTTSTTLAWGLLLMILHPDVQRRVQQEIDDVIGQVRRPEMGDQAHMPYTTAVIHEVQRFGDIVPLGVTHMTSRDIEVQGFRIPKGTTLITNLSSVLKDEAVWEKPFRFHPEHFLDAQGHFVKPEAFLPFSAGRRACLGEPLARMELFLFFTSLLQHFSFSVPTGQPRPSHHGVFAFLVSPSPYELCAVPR
experimental readout: IC50

Answered cases to consult:
CCCS(=O)(=O)Nc1ccc(F)c(C(=O)c2c[nH]c3ncc(-c4ccc(S(=O)(=O)N5CCOCC5)cc4)cc23)c1F    > 10 µM
C#Cc1cnc2[nH]cc(C(=O)c3c(F)ccc(NS(=O)(=O)CCC)c3F)c2c1    > 10 µM

Dear reader, for each entry below, please note its IC50.
1. CCCS(=O)(=O)Nc1ccc(F)c(C(=O)c2c[nH]c3ncc(-c4cn[nH]c4)cc23)c1F
2. COc1ccnc2[nH]cc(C(=O)c3c(F)ccc(NS(=O)(=O)c4c(F)cccc4F)c3F)c12

-- reply
1: 5 to 10 µM; 2: > 10 µM

----------
Please go through the items and note down their pIC50.
biological target: CYP3A4(BQ) (Homo sapiens, UniProt P08684); experiment: CYP3A4(BQ) inhibition (fluorescent substrate); type: in vitro ADME; conditions: read-out: Cyp IC50 3A4(BQ)
Sequence (P08684 whole entry): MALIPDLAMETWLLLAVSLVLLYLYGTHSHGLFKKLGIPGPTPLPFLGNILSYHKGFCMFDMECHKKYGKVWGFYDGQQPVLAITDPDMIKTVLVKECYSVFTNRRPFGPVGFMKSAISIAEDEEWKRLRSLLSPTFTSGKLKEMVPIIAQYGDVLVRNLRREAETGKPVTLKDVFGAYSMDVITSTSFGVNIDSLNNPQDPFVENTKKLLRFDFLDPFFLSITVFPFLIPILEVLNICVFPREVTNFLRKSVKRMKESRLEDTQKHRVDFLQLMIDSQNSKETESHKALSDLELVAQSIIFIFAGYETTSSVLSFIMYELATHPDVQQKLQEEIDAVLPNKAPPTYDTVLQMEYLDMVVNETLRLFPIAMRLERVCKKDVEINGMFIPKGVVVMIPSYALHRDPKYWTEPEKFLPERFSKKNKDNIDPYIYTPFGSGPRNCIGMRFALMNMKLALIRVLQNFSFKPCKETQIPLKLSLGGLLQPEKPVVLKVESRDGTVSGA
pIC50: −log10 of the molar value.

COc1cnc2[nH]cc(C(=O)c3c(F)ccc(NS(=O)(=O)c4ccccc4F)c3F)c2c1    < 5.00

Each compound below has a recorded value; state its pIC50.
1. N#Cc1cnc2[nH]cc(C(=O)c3cccc(NS(=O)(=O)c4ccccc4)c3F)c2c1
2. CCCS(=O)(=O)Nc1ccc(F)c(C(=O)c2c[nH]c3ncc(-c4ccc(OCCCN5CCCC5)nc4)cc23)c1F
3. CCCS(=O)(=O)Nc1ccc(F)c(C(=O)c2c[nH]c3ncc(-c4ccc(NS(C)(=O)=O)cc4)cc23)c1F
4. N#Cc1ccnc2[nH]cc(C(=O)c3c(F)ccc(NS(=O)(=O)c4cccnc4)c3F)c12
5. COc1ncc(-c2cnc3[nH]cc(C(=O)c4c(F)ccc(NS(=O)(=O)c5cccc(F)c5)c4F)c3c2)cn1

-- reply
1. < 5.00
2. < 5.00
3. < 5.00
4. 5.00 to 5.30
5. < 5.00

Provide reported pIC50 for each item, in the same order as listed.
1. CCCS(=O)(=O)Nc1ccc(F)c(C(=O)c2c[nH]c3ncc(-c4ccc(S(=O)(=O)NC)cc4)cc23)c1F
2. CCCS(=O)(=O)Nc1ccc(F)c(C(=O)c2c[nH]c3ncc(-c4cncc(S(C)(=O)=O)c4)cc23)c1F
3. O=C(c1c(F)ccc(NS(=O)(=O)c2cccc(F)c2)c1F)c1c[nH]c2nccc(Cl)c12

-- reply
["5.00 to 5.30", "< 5.00", "< 5.00"]

# per-item lookup of pIC50; items listed below
1. CCCS(=O)(=O)Nc1ccc(F)c(C(=O)c2c[nH]c3ncc(-c4ccc(OCCCN(C)C)nc4)cc23)c1F
2. CCCS(=O)(=O)Nc1ccc(F)c(C(=O)c2c[nH]c3ncc(-c4ccc(S(=O)(=O)C(C)C)cc4)cc23)c1F

-- reply
["> 5.30", "< 5.00"]

State recorded pIC50 for all listed compounds.
1. CCCS(=O)(=O)Nc1ccc(F)c(C(=O)c2c[nH]c3ncc(-c4cnc(SC)nc4)cc23)c1F
2. CCCS(=O)(=O)Nc1ccc(F)c(C(=O)c2c[nH]c3ncc(-c4cnn(Cc5ccccc5)c4)cc23)c1F

-- reply
["> 5.30", "< 5.00"]

----------
Could you please report measured pIC50 for the items listed next?
biological target: CYP1A2 (Homo sapiens, UniProt P05177); test: CYP1A2 inhibition (fluorescent substrate); assay type: in vitro ADME; details: CYP1A2, CEC substrate; read-out: Cyp IC50 1A2
Sequence (P05177 whole entry): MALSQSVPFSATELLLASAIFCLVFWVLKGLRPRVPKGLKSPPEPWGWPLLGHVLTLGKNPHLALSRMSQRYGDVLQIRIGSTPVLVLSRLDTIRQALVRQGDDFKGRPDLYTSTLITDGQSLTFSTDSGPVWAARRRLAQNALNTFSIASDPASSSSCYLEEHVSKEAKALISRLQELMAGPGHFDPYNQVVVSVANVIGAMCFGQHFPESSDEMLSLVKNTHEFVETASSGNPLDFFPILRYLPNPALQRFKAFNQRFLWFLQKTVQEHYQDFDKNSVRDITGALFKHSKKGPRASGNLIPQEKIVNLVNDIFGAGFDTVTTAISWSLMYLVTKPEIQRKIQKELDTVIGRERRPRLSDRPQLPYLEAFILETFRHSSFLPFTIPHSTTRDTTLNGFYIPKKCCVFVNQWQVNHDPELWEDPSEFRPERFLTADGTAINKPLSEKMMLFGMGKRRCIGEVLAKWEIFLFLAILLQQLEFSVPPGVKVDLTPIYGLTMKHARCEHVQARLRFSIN
pIC50: −log10 of the molar value.

N#Cc1ccnc2[nH]cc(C(=O)c3c(F)ccc(NS(=O)(=O)c4cc(F)ccc4F)c3F)c12 [P-2036]    < 5.00
CCCS(=O)(=O)Nc1ccc(F)c(C(=O)c2c[nH]c3ncc(-c4ccc(C(=O)NCC)nc4)cc23)c1F [P-2151]    < 5.00
CCCS(=O)(=O)Nc1ccc(F)c(C(=O)c2c[nH]c3ncc(-c4ccc(OCCN5CCCC5)nc4)cc23)c1F [P-2233]    < 5.00
CCCS(=O)(=O)Nc1ccc(F)c(C(=O)c2c[nH]c3ncc(-c4ccc(N5CCCC5)nc4)cc23)c1F [P-2231]    > 5.30
CCCS(=O)(=O)Nc1ccc(F)c(C(=O)c2c[nH]c3ncc(-c4ccc(S(=O)(=O)C(C)C)cc4)cc23)c1F [P-2223]    < 5.00
N#Cc1ccnc2[nH]cc(C(=O)c3c(F)ccc(NS(=O)(=O)c4cccnc4)c3F)c12 [P-2077]    < 5.00
Cc1cnc2[nH]cc(C(=O)c3c(F)ccc(NS(=O)(=O)c4cccnc4)c3F)c2c1 [P-2069]    < 5.00
CCCS(=O)(=O)Nc1ccc(F)c(C(=O)c2c[nH]c3ncc(-c4ccc(C)nc4)cc23)c1F [P-2213]    < 5.00
CCCS(=O)(=O)Nc1ccc(F)c(C(=O)c2c[nH]c3ncc(-c4cnn(CCN5CCOCC5)c4)cc23)c1F [P-2177]    < 5.00
O=C(c1c(F)ccc(NS(=O)(=O)c2c(F)cccc2F)c1F)c1c[nH]c2ncc(Cl)cc12 [P-2003]    < 5.00

For each of the molecules below, note its pIC50.
1. COc1ncc(-c2cnc3[nH]cc(C(=O)c4c(F)ccc(NS(=O)(=O)c5cccc(F)c5)c4F)c3c2)cn1 [P-2045]
2. CCCS(=O)(=O)Nc1ccc(F)c(C(=O)c2c[nH]c3ncc(-c4ccc(S(N)(=O)=O)cc4)cc23)c1F [P-2194]
3. N#Cc1cnc2[nH]cc(C(=O)c3c(F)ccc(NS(=O)(=O)c4cccnc4)c3F)c2c1 [P-2072]
4. CCCS(=O)(=O)Nc1ccc(F)c(C(=O)c2c[nH]c3ncc(-c4ccc(S(=O)(=O)NC5CC5)cc4)cc23)c1F [P-2168]
5. CCCS(=O)(=O)Nc1ccc(F)c(C(=O)c2c[nH]c3ncc(-c4ccnc(F)c4)cc23)c1F [P-2192]

-- reply
< 5.00
< 5.00
< 5.00
< 5.00
< 5.00

----------
target: CYP2C9 (Homo sapiens); assay: CYP2C9 inhibition (fluorescent substrate); format: in vitro ADME; settings: CYP2C9, MFC substrate; read-out: Cyp IC50 2C9
Sequence (P11712 whole entry): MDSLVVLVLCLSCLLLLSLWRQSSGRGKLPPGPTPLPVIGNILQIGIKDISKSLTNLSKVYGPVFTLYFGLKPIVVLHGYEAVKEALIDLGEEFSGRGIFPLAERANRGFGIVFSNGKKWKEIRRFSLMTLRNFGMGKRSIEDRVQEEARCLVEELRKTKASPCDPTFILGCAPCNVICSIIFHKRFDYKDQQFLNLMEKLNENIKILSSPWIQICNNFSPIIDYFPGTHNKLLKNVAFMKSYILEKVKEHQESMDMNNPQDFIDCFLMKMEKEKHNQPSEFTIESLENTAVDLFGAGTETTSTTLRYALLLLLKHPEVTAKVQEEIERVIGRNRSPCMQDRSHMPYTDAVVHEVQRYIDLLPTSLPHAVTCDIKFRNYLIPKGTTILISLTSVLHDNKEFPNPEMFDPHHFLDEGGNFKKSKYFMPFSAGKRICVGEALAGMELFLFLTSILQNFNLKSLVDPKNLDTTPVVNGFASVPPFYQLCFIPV
pIC50: −log10 of the molar value.
experimental readout: pIC50

Guide cases for pIC50, answers given:
CCCS(=O)(=O)Nc1ccc(F)c(C(=O)c2c[nH]c3ncc(-c4ccc(N)nc4)cc23)c1F    < 5.00
N#Cc1ccnc2[nH]cc(C(=O)c3c(F)ccc(NS(=O)(=O)c4cccnc4)c3F)c12    5.00 to 5.30
CCCS(=O)(=O)Nc1ccc(F)c(C(=O)c2c[nH]c3ncc(-c4cn[nH]c4)cc23)c1F    > 5.30
COc1cnc2[nH]cc(C(=O)c3c(F)ccc(NS(=O)(=O)c4ccccc4F)c3F)c2c1    < 5.00

Okay, here is my list. What is pIC50 for each of these?
1. N#Cc1cnc2[nH]cc(C(=O)c3cccc(NS(=O)(=O)c4c(F)cccc4F)c3F)c2c1
2. CCCS(=O)(=O)Nc1ccc(F)c(C(=O)c2c[nH]c3ncc(-c4cnc(SC)nc4)cc23)c1F
3. COc1ncc(-c2cnc3[nH]cc(C(=O)c4c(F)ccc(NS(=O)(=O)c5cccc(F)c5)c4F)c3c2)cn1
4. CCCS(=O)(=O)Nc1ccc(F)c(C(=O)c2c[nH]c3ncc(-c4ccc(NS(C)(=O)=O)cc4)cc23)c1F

-- reply
1. < 5.00
2. > 5.30
3. < 5.00
4. 5.00 to 5.30

----------
Reported IC50 for target or system CYP2C9 (Homo sapiens, UniProt P11712), by entry.

Completed entries (count: 5):
CCCS(=O)(=O)Nc1ccc(F)c(C(=O)c2c[nH]c3ncc(-c4ccc(CCCOC)nc4)cc23)c1F [P-2226]    < 5 µM
COc1ccnc2[nH]cc(C(=O)c3c(F)ccc(NS(=O)(=O)c4ccccc4F)c3F)c12 [P-2021]    > 10 µM
Cc1cnc2[nH]cc(C(=O)c3c(F)ccc(NS(=O)(=O)c4cccnc4)c3F)c2c1 [P-2069]    < 5 µM
CCCS(=O)(=O)Nc1ccc(F)c(C(=O)c2c[nH]c3ncc(-c4ccnc(F)c4)cc23)c1F [P-2192]    5 to 10 µM
CCCS(=O)(=O)Nc1ccc(F)c(C(=O)c2c[nH]c3ncc(-c4ccc(S(=O)(=O)CC)cc4)cc23)c1F [P-2218]    > 10 µM

// each compound listed below needs its IC50
1. CCCS(=O)(=O)Nc1ccc(F)c(C(=O)c2c[nH]c3ncc(-c4cncc(S(C)(=O)=O)c4)cc23)c1F [P-2188]
2. O=C(c1c(F)ccc(NS(=O)(=O)c2c(F)cccc2F)c1F)c1c[nH]c2nccc(Cl)c12 [P-2033]
3. COc1ccnc2[nH]cc(C(=O)c3c(F)ccc(NS(=O)(=O)c4cccc(F)c4)c3F)c12 [P-2023]

-- reply
1: 5 to 10 µM; 2: > 10 µM; 3: 5 to 10 µM
